Data provenance is ChEMBL document CHEMBL1150766.

- System: Fibroblast
- Experimental Protocol: Induction of CRABP 2 mRNA expression in human normal fibroblast at 1 uM by […] relative to control
- Assay type: functional
Catalogue of Activity values
Write no unit; give the number alone.

# count of solved cases: 3
Compound: CC1=C(/C=C/C(C)=C/C=C/C(C)=C/COC(=O)/C=C(C)/C=C/C=C(C)/C=C/C2=C(C)CCCC2(C)C)C(C)(C)CCC1 [RETINYLRETINOATE]
Activity: 1.56
//
Compound: CC1=C(/C=C/C(C)=C/C=C/C(C)=C/CO)C(C)(C)CCC1 [RETINOL]
Activity: 1.4
//
Compound: CC1=C(/C=C/C(C)=C/C=C/C(C)=C/C(=O)O)C(C)(C)CCC1 [TRETINOIN]
Activity: 1.84

**Query** Identify the reported Activity for the following entry. CCCCCCCCCCCCCCCC(=O)OC/C=C(C)/C=C/C=C(C)/C=C/C1=C(C)CCCC1(C)C [VITAMIN A PALMITATE]
**Result** 1.2
